system: SK-OV-3 ovarian; test: NCI-60 one-dose screen, 48 h (100 = growth as untreated, 0 = no growth, -100 = all killed); details: 10 µM unless noted
About 83,000 compounds went through this panel and 20% of them were active in at least one assay; those are over-represented in the sample as a whole. The source made the active and inactive calls. How the source made its calls: active means growth percent below 10; inactive means the rest.
reported.property: growth

Completed entries (count: 6):
compound | growth
Cc1ccc(-c2nc3c(N=Nc4ccc(S(N)(=O)=O)cc4)c(N)nn3c(N)c2C#N)cc1 | 63.8% (inactive)
CCOC(=O)C(C)(CSSCC(C)(NC(=O)c1ccc2ccccc2c1)C(=O)OCC)NC(=O)c1ccc2ccccc2c1 (centres undefined) | 107% (inactive)
CC1(C)N=C(N)N=C(N)N1c1ccc(F)c(C(F)(F)F)c1 | 60.5% (inactive)
CC(C)(c1ccc(OCC(O)CNCc2ccco2)cc1)c1ccc(OCC(O)CNCc2ccco2)cc1 (centres undefined) | 105% (inactive)
CCOC(=O)c1noc2c1CCc1cn(Cc3cc(OC)cc(OC)c3)cc1-2 | 101% (inactive)
OCc1cnccc1NC12CC3CC(CC(C3)C1)C2 | 100% (inactive)

query: Look at this compound and give its reported growth. Fc1ccc(Nc2ncnc3ccc(-c4cn[nH]c4)cc23)cc1Cl
result: -11.6% (active)

query: Now the compound Cc1cc(Nc2ccc(Cl)c(Cl)c2)nc(N)n1
result: 105% (inactive)

query: Now the compound COC(=O)CCCNS(=O)(=O)c1cc(C(=O)Nc2ccc(NC(=O)c3cc(S(=O)(=O)NCCCC(=O)OC)c(O)c(O)c3O)cc2)c(O)c(O)c1O
result: 83.8% (inactive)

The values you see were collected from PubChem BioAssay (NCI).
